Values from patent US8916551B2

target: AMPA receptor (human GluR1 flip/stargazin expressed in CHO-K1 cells) (Homo sapiens); construct: expressed in transfected cells; host or cells: CHO-K1; assay: AMPA receptor function enhancing activity using calcium influx as index; assay type: cell-based; conditions: test compound 30 μM with 3 mM glutamic acid, change in fluorescence level in 3 min, 100% = 3 mM glutamic acid + 300 μM cyclothiazide, 0% = 3 mM glutamic acid only
Sequence (P42261 19-906 isoform P42261-2 limits assumed): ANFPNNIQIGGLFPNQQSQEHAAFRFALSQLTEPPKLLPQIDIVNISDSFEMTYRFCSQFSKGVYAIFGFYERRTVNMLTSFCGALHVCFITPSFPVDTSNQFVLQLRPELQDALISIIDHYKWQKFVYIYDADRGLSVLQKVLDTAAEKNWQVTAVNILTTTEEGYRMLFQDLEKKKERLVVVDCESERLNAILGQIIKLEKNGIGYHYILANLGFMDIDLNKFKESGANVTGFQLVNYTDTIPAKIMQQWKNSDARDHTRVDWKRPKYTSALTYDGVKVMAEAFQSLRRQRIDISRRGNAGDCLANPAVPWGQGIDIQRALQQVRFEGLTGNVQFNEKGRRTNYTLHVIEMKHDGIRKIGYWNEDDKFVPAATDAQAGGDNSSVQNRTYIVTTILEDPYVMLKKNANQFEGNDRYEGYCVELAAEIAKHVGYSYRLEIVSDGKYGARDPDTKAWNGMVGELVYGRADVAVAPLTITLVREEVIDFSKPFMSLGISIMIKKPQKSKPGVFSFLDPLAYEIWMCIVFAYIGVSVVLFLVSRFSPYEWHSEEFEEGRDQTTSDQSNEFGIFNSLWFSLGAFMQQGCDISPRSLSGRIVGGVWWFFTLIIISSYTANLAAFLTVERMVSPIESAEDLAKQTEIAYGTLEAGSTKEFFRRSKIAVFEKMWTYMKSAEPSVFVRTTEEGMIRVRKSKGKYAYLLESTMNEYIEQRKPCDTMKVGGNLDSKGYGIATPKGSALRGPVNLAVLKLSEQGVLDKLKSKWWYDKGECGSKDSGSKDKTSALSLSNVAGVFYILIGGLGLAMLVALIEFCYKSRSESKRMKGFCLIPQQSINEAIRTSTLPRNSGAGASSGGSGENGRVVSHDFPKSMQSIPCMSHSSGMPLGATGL
Sequence (Q9Y698 whole entry partner): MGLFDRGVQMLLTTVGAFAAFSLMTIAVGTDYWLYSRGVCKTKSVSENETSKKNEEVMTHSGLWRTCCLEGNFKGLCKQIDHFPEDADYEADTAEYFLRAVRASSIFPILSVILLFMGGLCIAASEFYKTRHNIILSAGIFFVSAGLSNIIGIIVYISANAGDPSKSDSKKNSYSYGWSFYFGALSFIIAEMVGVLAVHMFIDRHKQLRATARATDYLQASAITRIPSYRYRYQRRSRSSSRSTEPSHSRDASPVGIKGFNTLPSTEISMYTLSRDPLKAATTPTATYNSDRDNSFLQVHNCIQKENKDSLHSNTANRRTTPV
measured-endpoint: activity (%)

>  <molecule>
O=S1(=O)CCN2CCC[C@@H](c3ccc(Oc4ccc(Br)cc4)cc3)C2=N1

>  <tgt>
AMPA receptor (human GluR1 flip/stargazin expressed in CHO-K1 cells) (Homo sapiens)

>  <measured-endpoint>
activity (%)

>  <value-measured>
78

$$$$
>  <molecule>
O=S1(=O)CCN2C=CC=C(c3ccc(Oc4ccc(C(F)(F)F)nc4)cc3)C2=N1

>  <tgt>
AMPA receptor (human GluR1 flip/stargazin expressed in CHO-K1 cells) (Homo sapiens)

>  <measured-endpoint>
activity (%)

>  <value-measured>
81

$$$$
>  <molecule>
Cc1cc(F)ccc1Oc1ccc(C2CCCN3CCS(=O)(=O)N=C23)cc1 (stereo not drawn) [Example 145]

>  <tgt>
AMPA receptor (human GluR1 flip/stargazin expressed in CHO-K1 cells) (Homo sapiens)

>  <measured-endpoint>
activity (%)

>  <value-measured>
84

$$$$
>  <molecule>
O=S1(=O)CCN2C=CC(Cl)=C(c3ccc(Oc4ccccc4)cc3)C2=N1

>  <tgt>
AMPA receptor (human GluR1 flip/stargazin expressed in CHO-K1 cells) (Homo sapiens)

>  <measured-endpoint>
activity (%)

>  <value-measured>
67

$$$$
>  <molecule>
O=S1(=O)CCN2C=CC=C(c3ccc(Oc4ccccc4)nc3)C2=N1

>  <tgt>
AMPA receptor (human GluR1 flip/stargazin expressed in CHO-K1 cells) (Homo sapiens)

>  <measured-endpoint>
activity (%)

>  <value-measured>
74

$$$$

I. O=S1(=O)CCN2CCCC(c3ccc(C(F)(F)F)cc3)C2=N1 (stereo not drawn) [Example 175]
II. O=S1(=O)CCN2C=CC=C(C3CCC(c4ccccc4)CC3)C2=N1 (stereo not drawn)
III. O=S1(=O)CCN2C=CC=C(c3ccc(Oc4ccc(O)cc4)cc3)C2=N1
# input Hello, I need these entries ordered by activity (%), highest reading first. Thanks! In your reply, arrange the labels in the requested order.
# output III, I, II
(III: 87%, I: 53%, II: 36%)
